Biological target: T1, chemokine receptor CCR3 (UniProt P51677 1-355, limits assumed)
T1 construct: whole, on cells
T1 sequence (looked up): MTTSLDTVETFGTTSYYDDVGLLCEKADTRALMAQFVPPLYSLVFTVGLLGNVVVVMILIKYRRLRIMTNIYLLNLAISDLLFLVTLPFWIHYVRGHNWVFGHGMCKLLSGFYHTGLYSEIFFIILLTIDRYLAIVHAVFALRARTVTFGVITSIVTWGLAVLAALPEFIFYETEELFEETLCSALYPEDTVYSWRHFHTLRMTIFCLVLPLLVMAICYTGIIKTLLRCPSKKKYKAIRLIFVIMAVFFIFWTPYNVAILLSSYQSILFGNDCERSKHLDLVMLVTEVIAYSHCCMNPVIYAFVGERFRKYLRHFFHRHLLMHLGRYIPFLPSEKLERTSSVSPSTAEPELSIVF
Experiment: competition with 125I-Eotaxin, membranes of CHO-K1 cells expressing CCR3, filtration, one site competition model; 125I-Eotaxin tracer, CCR3 membranes
MEASURED ENDPOINT: pIC50
pIC50 is defined as minus the log10 of a concentration measured in mol/L.

Which pIC50 is reported for this binder? processed human chemokine PHC-1 (HCC-1[9-74]) (ligand, Purified from human hemofiltrate or made by tryptic digestion of HCC-1 (1-74)) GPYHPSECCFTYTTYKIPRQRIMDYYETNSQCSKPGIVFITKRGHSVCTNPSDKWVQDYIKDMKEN
8.57
